- targetSystem: P2X purinoceptor 7 (Homo sapiens)
- Sequence (Q99572 whole entry): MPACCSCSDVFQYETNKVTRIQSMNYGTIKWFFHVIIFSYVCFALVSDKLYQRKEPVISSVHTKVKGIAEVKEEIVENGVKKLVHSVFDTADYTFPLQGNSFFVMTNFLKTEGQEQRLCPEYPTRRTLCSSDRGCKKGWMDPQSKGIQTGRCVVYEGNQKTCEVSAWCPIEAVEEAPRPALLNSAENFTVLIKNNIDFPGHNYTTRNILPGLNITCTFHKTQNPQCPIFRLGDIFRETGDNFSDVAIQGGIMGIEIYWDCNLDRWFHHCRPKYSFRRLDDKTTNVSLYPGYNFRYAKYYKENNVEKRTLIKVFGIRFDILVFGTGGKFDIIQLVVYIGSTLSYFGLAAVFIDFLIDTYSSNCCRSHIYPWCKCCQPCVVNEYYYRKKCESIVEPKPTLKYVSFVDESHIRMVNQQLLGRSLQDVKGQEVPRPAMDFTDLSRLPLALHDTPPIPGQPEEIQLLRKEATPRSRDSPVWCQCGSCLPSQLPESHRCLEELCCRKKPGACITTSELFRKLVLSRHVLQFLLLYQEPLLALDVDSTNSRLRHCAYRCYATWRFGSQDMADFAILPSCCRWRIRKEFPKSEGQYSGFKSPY
- experimentalDetails: Antagonist activity at human purinergic P2X7 receptor expressed in HEK293 cells assessed as inhibition of BzATP-induced ethidium bromide uptake
- Type: functional, cell-based
pIC50: −log10 of the molar value.
measureName: pIC50

- Cc1ccc(S(=O)(=O)Oc2ccc(C[C@@H](C(=O)N3CCN(C(=O)c4ccccc4)CC3)N(C)C(=O)OCc3ccccc3)cc2)cc1: 5.87
- CC(C)(C)OC(=O)N1CCN(C(=O)[C@H](Cc2ccc(OS(=O)(=O)c3ccc(I)cc3)cc2)NC(=O)OCc2ccccc2)CC1: 5.45
- CC(C)(C)OC(=O)N1CCN(C(=O)[C@H](Cc2ccc(OS(=O)(=O)c3ccc(OC(F)(F)F)cc3)cc2)NC(=O)OCc2ccccc2)CC1: 6.14
- Cc1ccc(S(=O)(=O)Oc2ccc(C[C@H](NC(=O)OCc3ccccc3)C(=O)N3CCN(C(=O)c4ccccc4)C[C@@H]3C)cc2)cc1: 6.30
- CC(C)(C)OC(=O)N1CCN(C(=O)[C@H](Cc2ccc(OS(=O)(=O)c3ccc(Br)cc3)cc2)NC(=O)OCc2ccccc2)CC1: 6.29
- O=C(N[C@@H](Cc1ccc(OS(=O)(=O)c2ccc([N+](=O)[O-])cc2)cc1)C(=O)N1CCN(C(=O)c2ccccc2)CC1)OCc1ccccc1: 6.93
- Cc1ccc(S(=O)(=O)Oc2ccc(C[C@@H](NC(=O)OCc3ccccc3)C(=O)N3CCN(C(=O)OC(C)(C)C)CC3)cc2)cc1: 6.06
- Cc1ccc(S(=O)(=O)Oc2ccc(C[C@H](NC(=O)OCc3ccccc3)C(=O)N3CCN(C(=O)OC(C)(C)C)CC3)cc2)cc1: 5.81
- Cc1ccc(S(=O)(=O)Oc2ccc(C[C@H](NC(=O)OCc3ccccc3)C(=O)N3CCN(C(=O)c4ccc(F)cc4)CC3)cc2)cc1: 6.50
- CC(C)(C)OC(=O)N1CCN(C(=O)[C@H](Cc2ccc(OS(=O)(=O)c3ccc(F)cc3)cc2)NC(=O)OCc2ccccc2)CC1: 5.23
- Cc1ccc(S(=O)(=O)Oc2ccc(C[C@H](NC(=O)OCc3ccccc3)C(=O)N3CCN(C(=O)c4ccccc4)[C@@H](C)C3)cc2)cc1: 6.59
- C[C@H]1CN(C(=O)[C@H](Cc2ccc(OS(=O)(=O)c3ccc(C#N)cc3)cc2)NC(=O)OCc2ccccc2)CCN1C(=O)c1ccc(N(C)C)cc1: 6.27
- CC(C)(C)OC(=O)N1CCN(C(=O)[C@H](Cc2ccc(OS(=O)(=O)c3ccc(C#N)cc3)cc2)NC(=O)OCc2ccccc2)CC1: 6.11
- Cc1ccc(S(=O)(=O)Oc2ccc(C[C@H](NC(=O)OCc3ccccc3)C(=O)N3CCN(C(=O)c4ccc(N(C)C)cc4)CC3)cc2)cc1: 5.70
